test system: Nakaseomyces glabratus; experiment: Antifungal activity against wild-type Candida glabrata isolate 21231 by disk diffusion method; type: functional
Can you tell me inhibition zone (IZ) for the items I'm about to list?
Use mm as the unit, but write only the number.

C[C@@H]1[C@H](O)[C@@H](C)/C=C/C=C/C=C/C=C/C=C/C=C/C=C/[C@H](O[C@@H]2O[C@H](C)[C@@H](O)[C@H](N)[C@@H]2O)C[C@@H]2O[C@](O)(C[C@@H](O)C[C@@H](O)[C@H](O)CC[C@@H](O)C[C@@H](O)CC(=O)O[C@H]1C)C[C@H](O)[C@H]2C(=O)O yielded inhibition zone (IZ) of 27

Note to self: inhibition zone (IZ) recorded for OC(Cn1cncn1)(Cn1cncn1)c1ccc(F)cc1F was 21

Consider Clc1ccc(COC(Cn2ccnc2)c2ccc(Cl)cc2Cl)c(Cl)c1 (stereo unspecified) . Its measured inhibition zone (IZ) is 21

For record C[C@@H](c1ncncc1F)[C@](O)(Cn1cncn1)c1ccc(F)cc1F the listed inhibition zone (IZ) is 30

// sample Clc1ccc(COC(Cn2ccnc2)c2ccc(Cl)cc2Cl)cc1 (stereo unspecified) , its inhibition zone (IZ) was 25

// field: inhibition zone (IZ); key: CC(=O)N1CCN(c2ccc(OCC3COC(Cn4ccnc4)(c4ccc(Cl)cc4Cl)O3)cc2)CC1 (stereo unspecified) ; value = 33
